Provenance of the data: patent US11246912B2

# experimentSummary: Adropin stability during incubation with mouse serum (LC-MS)
# Assay type: in vitro ADME
# measurementParameters: 24 hours incubation with mouse serum; read-out: adropin level remaining
# Description: FIG. 11 is a graph showing adropin dynamic stability during incubation with mouse serum as measured with liquid chromatography mass spectrometry (LC-MS). The next step was to assess the stability of adropin during incubation with human or mouse serum.
No end group written: not given here.
endpoint: remaining at 24 h

>>> df
                             sequencerecord  recordedresult
0  CHSRSADVDSLSESSPNSSPGPCPEKAPPPQKPSHEGSYLLQP (cysteines drawn unpaired) [adropin]             55%
